B1: DCAF4 (parent)
chain: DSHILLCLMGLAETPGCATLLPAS

Variants of: B1
TEST PROTOCOL: protein stability index of a GFP-peptide fusion (GPS, HEK-293T) (PSI 1-6); higher = more stable;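 further: lentivirally expressed fusions sorted by FACS into six bins by GFP to DsRed ratio, PSI derived from sequencing read proportions per bin multiplied by bin number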
RUN PARAMETERS: c terminus: a fixed tail appended
Please provide measured protein stability index for the entries that follow.

Query :: Give the measured protein stability index of `P22R` .
Result :: 3.03

Query :: One more variant: `M9Y`
Result :: 3.06

Query :: Try `T14L` next.
Result :: 3.09
